# target-system: Cyclin-dependent kinase 5/CDK5 activator 1 (Homo sapiens, UniProt Q00535)
# Sequence (Q00535 whole entry): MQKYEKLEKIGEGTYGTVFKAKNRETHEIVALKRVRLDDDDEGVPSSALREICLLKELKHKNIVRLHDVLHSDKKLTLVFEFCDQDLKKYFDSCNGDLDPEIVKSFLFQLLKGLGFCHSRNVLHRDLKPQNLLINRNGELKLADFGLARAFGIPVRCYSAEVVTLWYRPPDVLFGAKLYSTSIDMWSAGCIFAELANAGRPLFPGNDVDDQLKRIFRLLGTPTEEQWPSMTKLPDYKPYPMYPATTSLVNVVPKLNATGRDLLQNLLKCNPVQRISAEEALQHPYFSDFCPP
# Sequence (Q15078 whole entry, further chain): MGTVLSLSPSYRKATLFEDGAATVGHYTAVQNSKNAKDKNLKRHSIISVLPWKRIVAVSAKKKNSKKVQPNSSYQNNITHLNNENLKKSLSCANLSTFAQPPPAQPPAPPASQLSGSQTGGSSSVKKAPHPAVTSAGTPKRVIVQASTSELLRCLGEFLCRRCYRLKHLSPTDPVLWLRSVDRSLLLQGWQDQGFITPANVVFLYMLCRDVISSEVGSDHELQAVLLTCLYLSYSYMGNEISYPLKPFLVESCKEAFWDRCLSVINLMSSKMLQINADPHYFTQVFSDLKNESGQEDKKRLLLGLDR
# test-details: Inhibition of CDK5/P35 (unknown origin) using histone H1 as substrate
# Assay type: protein-complex assay
Provide the reported IC50 of each item.

CC[C@@H](Nc1nc(NCc2cc(F)ccc2O)c2ncn(C(C)C)c2n1)C(C)O (mixture of isomers) yielded IC50 of 67 nM

# molecule `CC(C)n1cnc2c(NCc3cc(Cl)ccc3O)nc(NCC(C)(C)O)nc21` ; its IC50 = 69 nM

Briefly, IC50 measured for `CC(C)CNc1nc(NCc2ccccc2O)c2ncn(C(C)C)c2n1` : 2360 nM

# molecule `CC[C@H](CO)Nc1nc(NCc2cc(F)ccc2O)c2ncn(C(C)C)c2n1` ; its IC50 = 240 nM

Note to self: IC50 recorded for `CC(C)n1cnc2c(NCc3ccccc3O)nc(NCCC(C)(C)O)nc21` was 4480 nM

Reported IC50 for `CC(C)n1cnc2c(NCc3ccccc3N)nc(NCCC(C)(C)O)nc21` was > 5000 nM

Sample CC(C)n1cnc2c(NCc3cc(Cl)ccc3O)nc(NC3CCC(O)CC3)nc21 (configuration not stated) ; IC50 observed: 550 nM

The recorded IC50 for entry `CC(C)[C@H](Nc1nc(NCc2ccccc2N)c2ncn(C(C)C)c2n1)C(C)(C)O` equals 675 nM

The value of IC50 measured for the molecule `CC[C@H](CO)Nc1nc(NCc2cc(Cl)ccc2O)c2ncn(C(C)C)c2n1` turned out to be 150 nM

Input `CC(C)n1cnc2c(NCc3ccccc3N)nc(NCC(C)(C)O)nc21` . Output IC50: 740 nM

Kindly note the recorded IC50 for CC(C)n1cnc2c(NCc3cc(Cl)ccc3O)nc(NC3CCC(N)CC3)nc21 (configuration not stated) , which is 125 nM

Measured IC50, CC[C@@H](Nc1nc(NCc2cc(Cl)ccc2O)c2ncn(C(C)C)c2n1)C(C)O (mixture of isomers) : 71 nM

---

Provide the reported pIC50 of each item.
# target-system: Cyclin-dependent kinase 2/cyclin E1 (Homo sapiens)
# test-details: Inhibition of CDK2/Cyclin E (unknown origin) expressed in Sf9 cells using histone H1 as substrate
Note: pIC50 values are expressed as the negative base-10 logarithm of concentration in M.

compound `CC(C)n1cnc2c(NCc3cc(Cl)ccc3O)nc(NCC(C)(C)O)nc21` , pIC50 observed: 7.72

get_value(item= `CC[C@H](CO)Nc1nc(NCc2cc(Cl)ccc2O)c2ncn(C(C)C)c2n1` , readout=pIC50) returns 8.03

Looking up CC[C@@H](Nc1nc(NCc2cc(F)ccc2O)c2ncn(C(C)C)c2n1)C(C)O (mixture of isomers) , I see its pIC50 listed as 7.93

Per the record, `COc1ccc(CNc2nc(N3CCN(C)CC3)nc3c2ncn3C(C)C)cc1` has pIC50 of 6.05

Just so you know, measured pIC50 for `CC(C)n1cnc2c(NCc3ccccc3N)nc(NCC(C)(C)O)nc21` came out at 7.70

// pIC50 value for `COc1cccc(CNc2nc(N3CCNCC3)nc3c2ncn3C(C)C)c1O` : 6.20

Data point: `CC(C)n1cnc2c(NCc3ccccc3N)nc(NCCC(C)(C)O)nc21` ; pIC50 = 6.10

So, `CC[C@H](CO)Nc1nc(NCc2cc(F)ccc2O)c2ncn(C(C)C)c2n1` ? Its pIC50 was 7.72

The measured pIC50 associated with CC(C)n1cnc2c(NCc3cc(Cl)ccc3O)nc(NC3CCC(N)CC3)nc21 (stereo not given) reads 7.60

Item: `CC(C)n1cnc2c(NCc3cc(Cl)ccc3O)nc(N[C@@H](C)C(C)(C)O)nc21` | pIC50: 7.61

Looking up `CC[C@@H](CO)Nc1nc(NCc2cccc(OC)c2O)c2ncn(C(C)C)c2n1` , I found its pIC50 recorded as 7.23

pIC50 reported for this compound CC(C)n1cnc2c(NCc3cc(Cl)ccc3O)nc(NC3CCC(O)CC3)nc21 (stereo not given) : 7.21

pIC50 reported for this compound `CC(C)[C@H](Nc1nc(NCc2ccccc2N)c2ncn(C(C)C)c2n1)C(C)(C)O` : 7.15

Entry under test: `COc1ccc(CNc2nc(N3CCNCC3)nc3c2ncn3C(C)C)cc1` . Its pIC50 was 6.05

# pIC50 of CC[C@@H](Nc1nc(NCc2cc(Cl)ccc2O)c2ncn(C(C)C)c2n1)C(C)O (mixture of isomers) = 7.88

Lookup result for `CC[C@H](CO)Nc1nc(NCc2cccc(OC)c2OC)c2ncn(C(C)C)c2n1` ; measured pIC50: 7.51

Record `CC(C)n1cnc2c(NCc3ccc(O)cc3)nc(N3CCNCC3)nc21` . Reported pIC50: 6.47

For this compound ( `CC(C)CNc1nc(NCc2ccccc2O)c2ncn(C(C)C)c2n1` ), measured pIC50 is 6.66

GET /value?item= `CC[C@H](CO)Nc1nc(NCc2cccc(OC)c2O)c2ncn(C(C)C)c2n1` &field=pIC50 returns 7.22

pIC50 reported for this compound `CC(C)n1cnc2c(NCc3ccccc3O)nc(NCCC(C)(C)O)nc21` : 6.59

---

Can you tell me log10 IC50 for the items I'm about to list?
# target-system: Cyclin-dependent kinase 7/ cyclin H (Homo sapiens, UniProt P50613)
# Sequence (P51946 whole entry): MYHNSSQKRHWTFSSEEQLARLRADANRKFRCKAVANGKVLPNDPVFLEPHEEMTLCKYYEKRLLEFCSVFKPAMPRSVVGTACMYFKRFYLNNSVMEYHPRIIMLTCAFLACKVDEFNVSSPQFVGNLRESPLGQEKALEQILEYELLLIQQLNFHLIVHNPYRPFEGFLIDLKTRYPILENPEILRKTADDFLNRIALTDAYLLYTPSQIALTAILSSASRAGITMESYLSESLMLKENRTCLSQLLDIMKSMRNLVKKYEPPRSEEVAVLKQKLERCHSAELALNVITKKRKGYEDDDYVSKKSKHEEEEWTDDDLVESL
# Sequence (P50613 whole entry): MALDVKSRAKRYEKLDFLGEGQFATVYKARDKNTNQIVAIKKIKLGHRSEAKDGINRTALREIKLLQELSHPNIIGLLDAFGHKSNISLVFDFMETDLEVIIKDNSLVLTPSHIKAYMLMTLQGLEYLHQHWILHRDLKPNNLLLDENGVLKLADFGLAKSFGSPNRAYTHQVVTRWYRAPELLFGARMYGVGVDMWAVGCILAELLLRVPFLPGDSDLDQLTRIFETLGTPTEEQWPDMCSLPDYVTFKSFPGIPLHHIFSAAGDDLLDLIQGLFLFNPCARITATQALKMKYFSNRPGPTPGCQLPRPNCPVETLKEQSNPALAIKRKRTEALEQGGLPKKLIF
# test-details: Inhibition of CDK7/CyclinH/MAT1 (unknown origin) using (YSPTSPS)2KK as substrate
Transform log10 | Measure IC50 | Unit nM

Per the records, this compound ( CC[C@@H](Nc1nc(NCc2cc(Cl)ccc2O)c2ncn(C(C)C)c2n1)C(C)O (mixture of isomers) ) has log10 IC50 equal to 1.99

GET /value?item= CC[C@@H](Nc1nc(NCc2cc(F)ccc2O)c2ncn(C(C)C)c2n1)C(C)O (mixture of isomers) &field=log10 IC50 returns 2.26

Form field log10 IC50, entry `CC(C)[C@H](Nc1nc(NCc2ccccc2N)c2ncn(C(C)C)c2n1)C(C)(C)O` : 2.46

log10 IC50 reading for CC(C)n1cnc2c(NCc3cc(Cl)ccc3O)nc(NC3CCC(O)CC3)nc21 (configuration not stated) : 2.73

Item: `CC(C)n1cnc2c(NCc3ccccc3N)nc(NCC(C)(C)O)nc21` | log10 IC50: 3.08

Briefly, log10 IC50 measured for CC(C)n1cnc2c(NCc3cc(Cl)ccc3O)nc(NC3CCC(N)CC3)nc21 (configuration not stated) : 2.20

// `CC(C)n1cnc2c(NCc3cc(Cl)ccc3O)nc(NCC(C)(C)O)nc21` : log10 IC50 value = 2.64

---

For each record, write down the corresponding pIC50.
# target-system: CDK9/cyclin T1 (Homo sapiens, UniProt P50750)
# Sequence (O60563 whole entry): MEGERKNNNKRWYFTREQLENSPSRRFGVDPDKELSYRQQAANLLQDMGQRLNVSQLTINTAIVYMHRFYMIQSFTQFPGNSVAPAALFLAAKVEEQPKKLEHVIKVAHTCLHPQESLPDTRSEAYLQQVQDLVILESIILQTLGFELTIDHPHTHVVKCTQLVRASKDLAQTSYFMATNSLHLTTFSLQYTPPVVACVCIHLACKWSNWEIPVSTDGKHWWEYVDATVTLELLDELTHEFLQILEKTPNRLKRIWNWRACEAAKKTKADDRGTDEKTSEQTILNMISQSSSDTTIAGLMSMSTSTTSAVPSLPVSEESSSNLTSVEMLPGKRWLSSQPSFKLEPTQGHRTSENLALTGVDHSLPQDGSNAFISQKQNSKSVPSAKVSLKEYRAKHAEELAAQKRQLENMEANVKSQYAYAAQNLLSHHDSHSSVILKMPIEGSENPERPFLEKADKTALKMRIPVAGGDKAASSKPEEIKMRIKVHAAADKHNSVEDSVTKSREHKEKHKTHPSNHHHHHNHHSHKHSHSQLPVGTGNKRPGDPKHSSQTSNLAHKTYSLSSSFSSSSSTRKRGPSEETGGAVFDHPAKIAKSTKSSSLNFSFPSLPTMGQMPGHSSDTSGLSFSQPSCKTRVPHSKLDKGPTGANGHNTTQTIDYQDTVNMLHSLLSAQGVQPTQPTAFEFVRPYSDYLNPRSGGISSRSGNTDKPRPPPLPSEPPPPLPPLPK
# Sequence (P50750 whole entry): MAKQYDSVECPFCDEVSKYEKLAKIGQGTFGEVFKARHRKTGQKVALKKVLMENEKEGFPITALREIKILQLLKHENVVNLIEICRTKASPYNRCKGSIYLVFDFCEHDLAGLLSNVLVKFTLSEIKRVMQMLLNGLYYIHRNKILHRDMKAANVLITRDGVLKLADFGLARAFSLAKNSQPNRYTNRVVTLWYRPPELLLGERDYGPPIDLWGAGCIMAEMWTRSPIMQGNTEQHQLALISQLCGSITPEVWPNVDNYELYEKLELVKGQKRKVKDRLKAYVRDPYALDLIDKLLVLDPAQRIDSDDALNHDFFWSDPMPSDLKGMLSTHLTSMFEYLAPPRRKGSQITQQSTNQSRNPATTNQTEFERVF
# test-details: Inhibition of CDK9/CyclinT1 (unknown origin) using (YSPTSPS)2KK as substrate
Just the number, please; pIC50 means minus log10 of the concentration in mol/L.

Quick note, pIC50 for CC[C@@H](Nc1nc(NCc2cc(Cl)ccc2O)c2ncn(C(C)C)c2n1)C(C)O (mixture of isomers) landed at 6.78

Item: CC(C)n1cnc2c(NCc3cc(Cl)ccc3O)nc(NC3CCC(O)CC3)nc21 (configuration not stated) | pIC50: 6.04

Entry under test: `CC[C@H](CO)Nc1nc(NCc2cc(F)ccc2O)c2ncn(C(C)C)c2n1` . Its pIC50 was 6.97

Looking up CC[C@H](CO)Nc1nc(NCc2ccccc2O)c2ncn(C(C)C)c2n1 [OLOMOUCINE II] , I see its pIC50 listed as 6.09

Recorded pIC50 (compound `CC(C)n1cnc2c(NCc3ccccc3N)nc(NCC(C)(C)O)nc21` ): 5.91

---

# Tested on: K562
# test-details: Cytotoxicity against human K562 cells assessed as reduction in number of viable cells after 72 hrs by fluorescence assay
# Format: functional, cell-based
# particulars: K562, 72 h
For each record, write down the corresponding IC50.
Write the answer as a number in µM, unit excluded.

In plain terms, CC[C@H](CO)Nc1nc(NCc2ccccc2)c2ncn(C(C)C)c2n1 [SELICICLIB] has a documented IC50 of 45.5

Record summary for `CC(C)[C@H](Nc1nc(NCc2ccccc2N)c2ncn(C(C)C)c2n1)C(C)(C)O` : reported IC50 = 39.8

Recorded IC50 (molecule `CC[C@H](CO)Nc1nc(NCc2cccc(OC)c2O)c2ncn(C(C)C)c2n1` ): 54.8

In plain terms, `CC[C@H](CO)Nc1nc(NCc2ccc(N)cc2)c2ncn(C(C)C)c2n1` has a documented IC50 of 71.5

IC50 reported for this molecule `CC(C)n1cnc2c(NCc3ccccc3N)nc(NCCC(C)(C)O)nc21` : 100

Lookup result for `CC(C)n1cnc2c(NCc3ccccc3O)nc(NCCC(C)(C)O)nc21` ; measured IC50: 47.3

The reported value for `COc1ccc(CNc2nc(N3CCN(C)CC3)nc3c2ncn3C(C)C)cc1` in terms of IC50 is 11.9

// `CC(C)CNc1nc(NCc2ccccc2O)c2ncn(C(C)C)c2n1` : IC50 value = 10.8

Form field IC50, entry `CC(C)n1cnc2c(NCc3ccc(O)cc3)nc(N3CCNCC3)nc21` : 9.3

// CC[C@@H](Nc1nc(NCc2cc(Cl)ccc2O)c2ncn(C(C)C)c2n1)C(C)O (mixture of isomers) : IC50 value = 3.3
